Assayed Target: T1, mature recombinant human GDF-15 H202D variant with an N-terminal Flag and His tag, biotinylated (human, UniProt Q99988 197-308, chemically biotinylated with EZ link Sulfo-NHS-LC-Biotin, sites not stated)
T1 construct: also called Human H202D; not shown: N-terminal Flag and His tags
T1 chain: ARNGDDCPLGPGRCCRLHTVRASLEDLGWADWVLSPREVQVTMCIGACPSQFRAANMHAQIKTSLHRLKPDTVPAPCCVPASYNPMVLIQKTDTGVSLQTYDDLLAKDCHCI
Experiment Notes: SPR Biacore 8K, 25 C, biotinylated GDF-15 on streptavidin C1 chip, Fab as analyte
Overview of recorded koff for various binders

Sample answers from the record:
>  <Binder>
AB1170244 Fab (Fab, V domains shown, Fab of the humanized antibody, expressed as in Spooner et al. 2015) VH: EVQLVESGGGLVKPGGSLRLSCAASGFTFSSYAMSWVRQAPGKGLEWVAYISSGGDNIYYADTVKGRFTISRDNSKNTLYLQMNSLKTEDTAVYYCTRALVENAYFDYWGQGTTVTVSS VL: DSVLTQSPDSLAVSLGERATINCRASKSVSTSTYSYMHWYQQKPGQPPKLLIKYASYLESGVPDRFSGSGSGTDFTLKISRVEAEDVGVYYCQHSREFPWTFGGGTKVEIK

>  <Recorded Value>
0.00595 s⁻¹

$$$$
>  <Binder>
AB1170242 Fab (Fab, V domains shown, Fab of the humanized antibody, expressed as in Spooner et al. 2015) VH: QVQLQESGPGLLKPSQTLSLTCTVSGFSLSTYGMGVGWIRQPAGKGLEWLANIWWNDDKYYNSALKSRLTISKDTSKNQVSLKLSSVTAADTAVYYCAQEVYGWFAYWGQGTLVTVSS VL: DIQMTQSPSTLSASVGDRVTITCKASQNVGTNVAWYQQKPGQPPKALIYSASYRYSGVPDRFSGSGSGTDFTLTISSLQAEDVAVYYCQQYNSYPLTFGQGTKLEIK

>  <Recorded Value>
0.0233 s⁻¹

$$$$

Q: // lookup koff for AB1170245 Fab (Fab, V domains shown, Fab of the humanized antibody, expressed as in Spooner et al. 2015) VH: EVQLVESGGGLVKPGGSLRLSCAASGFTFSSYAMSWVRQAPGKGLEWVAYISSGGDYIYYADTVKGRFTISRDNSKNTLYLQMNSLKTEDTAVYYCTRALVDNAYFDYWGQGTTVTVSS VL: DIVLTQSPDSLAVSLGERATINCRASKSVSTSSYSYMHWYQQKPGQPPKLLIKYASYLEFGVPSRFSGSGSGTDFTLTISSLQPEDVATYYCQHSREFPWTFGGGTKVEIK
Ans: 0.0321 s⁻¹
